Some compounds, each annotated with its measured pIC50.
Target: human DGKα (Homo sapiens (Human), UniProt P23743)
Sequence (P23743 other isoform, or with tags, fused parts or gaps): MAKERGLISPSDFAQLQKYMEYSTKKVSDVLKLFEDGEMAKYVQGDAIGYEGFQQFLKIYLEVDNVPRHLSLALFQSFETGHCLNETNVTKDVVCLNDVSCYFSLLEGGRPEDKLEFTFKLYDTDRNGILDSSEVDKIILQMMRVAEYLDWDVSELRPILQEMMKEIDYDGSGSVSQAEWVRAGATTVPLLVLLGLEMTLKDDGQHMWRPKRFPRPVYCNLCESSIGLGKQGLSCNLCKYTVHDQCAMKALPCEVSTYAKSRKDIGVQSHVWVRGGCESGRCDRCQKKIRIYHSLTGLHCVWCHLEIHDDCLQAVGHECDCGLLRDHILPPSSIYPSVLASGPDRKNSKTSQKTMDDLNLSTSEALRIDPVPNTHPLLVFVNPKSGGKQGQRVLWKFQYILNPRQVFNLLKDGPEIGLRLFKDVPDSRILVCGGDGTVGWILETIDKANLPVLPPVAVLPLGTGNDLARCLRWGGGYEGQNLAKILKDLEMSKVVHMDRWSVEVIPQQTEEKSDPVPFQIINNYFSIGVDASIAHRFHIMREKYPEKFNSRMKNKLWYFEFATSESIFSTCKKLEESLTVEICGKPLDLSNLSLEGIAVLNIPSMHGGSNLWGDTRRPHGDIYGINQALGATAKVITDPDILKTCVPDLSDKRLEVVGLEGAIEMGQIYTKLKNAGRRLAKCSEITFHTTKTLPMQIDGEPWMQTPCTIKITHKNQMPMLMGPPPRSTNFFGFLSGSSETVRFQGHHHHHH
Assay: biochemical
Details: detergent/lipid micelle substrate; read-out: DGKα IC50
pIC50: −log10 of the molar value.
quantityMeasured: pIC50

[[record]]
compound = "CC(C)C(c1ccc(F)cc1)N1CCN(c2c(C#N)c(=O)n(C)c3ccc(Cl)nc23)CC1 (single isomer, unassigned)"
resultcomparator = "="
numericvalue = 6.40

[[record]]
compound = "CC(c1ccc(F)cc1)N1CCN(c2c(C#N)c(=O)n(CC3CC3)c3ccc(Br)nc23)CC1 (single isomer, unassigned) [Example 163]"
resultcomparator = "<"
numericvalue = 3.62

[[record]]
compound = "C#CCn1c(=O)c([N+](=O)[O-])c(N2CCN(C(c3ccc(F)cc3)c3ccc(F)cc3O)CC2)c2nc(C#N)ccc21 (racemic) [Example 119]"
resultcomparator = "="
numericvalue = 6.01

[[record]]
compound = "Cn1c(=O)c([N+](=O)[O-])c(N2CCN(C3(c4ccc(F)cc4)CC3)CC2)c2nc(C#N)ccc21"
resultcomparator = "="
numericvalue = 4.55

[[record]]
compound = "COc1cccc(C)c1C(c1ccc(F)cc1)N1CCN(c2c([N+](=O)[O-])c(=O)n(C)c3ccc(Br)nc23)CC1 (single isomer, unassigned) [Example 60]"
resultcomparator = "="
numericvalue = 4.49

[[record]]
compound = "C#CCn1c(=O)c([N+](=O)[O-])c(N2CCN(C(c3ccc(F)cc3)c3ccccc3O)CC2)c2nc(C#N)ccc21 (single isomer, unassigned)"
resultcomparator = "="
numericvalue = 4.51


---

Target: human DGKζ (Homo sapiens (Human))
Sequence (Q13574 other isoform, or with tags, fused parts or gaps): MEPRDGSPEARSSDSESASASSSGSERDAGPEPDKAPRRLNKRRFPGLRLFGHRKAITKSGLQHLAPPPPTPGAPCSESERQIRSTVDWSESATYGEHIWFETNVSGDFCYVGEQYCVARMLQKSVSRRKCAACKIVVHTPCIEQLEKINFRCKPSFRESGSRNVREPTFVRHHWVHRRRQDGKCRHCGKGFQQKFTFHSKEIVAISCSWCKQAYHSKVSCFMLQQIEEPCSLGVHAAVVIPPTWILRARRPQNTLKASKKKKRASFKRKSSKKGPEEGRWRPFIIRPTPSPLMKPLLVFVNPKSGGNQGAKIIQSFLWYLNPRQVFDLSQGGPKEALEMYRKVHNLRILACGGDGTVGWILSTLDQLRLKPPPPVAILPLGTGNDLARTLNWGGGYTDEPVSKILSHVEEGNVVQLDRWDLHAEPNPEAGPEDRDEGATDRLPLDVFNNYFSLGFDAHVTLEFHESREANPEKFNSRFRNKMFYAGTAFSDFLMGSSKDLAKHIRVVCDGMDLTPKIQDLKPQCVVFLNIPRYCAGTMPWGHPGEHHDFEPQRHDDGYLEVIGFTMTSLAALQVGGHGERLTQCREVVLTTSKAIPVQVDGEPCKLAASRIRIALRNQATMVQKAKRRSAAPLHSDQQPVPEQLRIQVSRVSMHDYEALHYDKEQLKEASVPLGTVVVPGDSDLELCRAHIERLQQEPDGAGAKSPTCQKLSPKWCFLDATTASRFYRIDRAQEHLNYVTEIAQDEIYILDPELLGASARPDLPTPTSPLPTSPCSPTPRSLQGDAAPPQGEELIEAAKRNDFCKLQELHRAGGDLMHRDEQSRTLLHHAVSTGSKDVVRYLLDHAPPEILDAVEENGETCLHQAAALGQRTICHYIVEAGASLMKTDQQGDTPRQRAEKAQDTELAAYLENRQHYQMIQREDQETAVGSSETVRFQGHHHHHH
Assay: DGKζ assay (detergent/lipid micelle substrate)
Format: biochemical
Conditions: DGKζ IC50, detergent/lipid micelle substrate
Some molecules, each annotated with its measured IC50.
quantityMeasured: IC50 (µM)

[[record]]
molecule = "CCC(c1ccc(F)cc1)N1CCN(c2c([N+](=O)[O-])c(=O)n(C)c3ccc(C#N)nc23)CC1 (single isomer, unassigned) [Example 34]"
resultcomparator = "="
numericvalue = 23

[[record]]
molecule = "C#CCn1c(=O)c([N+](=O)[O-])c(N2CCN(C(C)c3ccc(F)cc3)CC2)c2nc(C#N)ccc21 (single isomer, unassigned) [Example 136]"
resultcomparator = "="
numericvalue = 0.87

[[record]]
molecule = "CC(c1ccc(F)cc1)N1CCN(c2c(C#N)c(=O)n(CC3CC3)c3ccc(Br)nc23)CC1 (racemic) [Example 162]"
resultcomparator = ">"
numericvalue = 240

[[record]]
molecule = "C#CCn1c(=O)c([N+](=O)[O-])c(N2CCN(C(C)c3ccc(F)cc3)CC2)c2nc(C#N)ccc21 (single isomer, unassigned) [Example 137]"
resultcomparator = "="
numericvalue = 4.8

[[record]]
molecule = "COc1cc(F)ccc1C(c1ccc(F)cc1)N1CCN(c2c([N+](=O)[O-])c(=O)n(C)c3ccc(C#N)nc23)CC1 (single isomer, unassigned) [Example 124]"
resultcomparator = "="
numericvalue = 0.9

[[record]]
molecule = "CC(c1ccc(F)cc1)N1CCN(c2c(C#N)c(=O)n(CC3CC3)c3ccc(Br)nc23)CC1 (single isomer, unassigned) [Example 163]"
resultcomparator = ">"
numericvalue = 240


---

Molecular target: human DGKα (Homo sapiens (Human))
Assay: biochemical
Conditions: detergent/lipid micelle substrate; read-out: DGKα IC50
Method: The DGKα and DGKζ reactions were performed using either extruded liposome (DGKα and DGKζ LIPGLO assays) or detergent/lipid micelle substrate (DGKα and DGKζ assays). […] The compound inhibition studies were carried out as follows: 50 nL droplets of each test compound (top concentration 10 mM with 11 point, 3-fold dilution series for each compound) solubilized in DMSO were transferred to wells of a white 1536 well plate (Corning 3725). […] Luminescence was recorded using an EnVision microplate reader. […]
pIC50: −log10 of the molar value.
Tag: True if measured pIC50 is not below 6, False if it is.

[[record]]
compound = "Cn1c(=O)c(C#N)c(N2CCN(Cc3ccccc3)CC2)c2nc(Cl)ccc21"
grouplabel = "True"

[[record]]
compound = "Cn1c(=O)c(C#N)c(N2CCN(C(c3ccc(F)cc3)c3ccccc3O)CC2)c2nc(C#N)ccc21 (centres unmarked)"
grouplabel = "True"

[[record]]
compound = "CCc1ccc2c(n1)c(N1CCN(C(c3ccccc3)c3ccccc3)CC1)c(C#N)c(=O)n2C"
grouplabel = "False"

[[record]]
compound = "COc1ccccc1CN1CCN(c2c(C#N)c(=O)n(C)c3ccc(Cl)nc23)CC1"
grouplabel = "True"

[[record]]
compound = "Cn1c(=O)c(C#N)c(N2CCN(Cc3cccc(F)c3F)CC2)c2nc(Cl)ccc21"
grouplabel = "False"

[[record]]
compound = "Cn1c(=O)c(C#N)c(N2CCN(Cc3cccc(Cl)c3O)CC2)c2nc(Cl)ccc21"
grouplabel = "True"

[[record]]
compound = "Cn1c(=O)c(C#N)c(N2CCN(Cc3ccccc3O)CC2)c2nc(Br)ccc21"
grouplabel = "True"

[[record]]
compound = "C#CCn1c(=O)c(C#N)c(N2CCN(C(c3ccc(F)cc3)c3ccc(F)cc3)CC2)c2nc(Br)ccc21"
grouplabel = "False"

[[record]]
compound = "COc1cccc(Cl)c1CN1CCN(c2c(C#N)c(=O)n(C)c3ccc(Cl)nc23)CC1"
grouplabel = "False"

[[record]]
compound = "COc1cc(F)ccc1C(c1ccc(F)cc1)N1CCN(c2c(C#N)c(=O)n(C)c3ccc(Br)nc23)CC1 (racemic) [Example 15]"
grouplabel = "True"

[[record]]
compound = "CCn1ccc2c(CN3CCN(c4c(C#N)c(=O)n(C)c5ccc(Cl)nc45)CC3)cccc21"
grouplabel = "False"

[[record]]
compound = "Cc1ccc(O)c(CN2CCN(c3c(C#N)c(=O)n(C)c4ccc(Cl)nc34)CC2)c1"
grouplabel = "True"

[[record]]
compound = "Cn1c(=O)c(C#N)c(N2CCN(Cc3ccc(Br)cc3O)CC2)c2nc(C#N)ccc21"
grouplabel = "True"

[[record]]
compound = "COCCn1c(=O)c([N+](=O)[O-])c(N2CCN(C(C)c3ccc(F)cc3)CC2)c2nc(C#N)ccc21 (single isomer, unassigned) [Example 149]"
grouplabel = "False"

[[record]]
compound = "Cn1c(=O)c(C#N)c(N2CCN(Cc3cc(F)cc(F)c3)CC2)c2nc(Cl)ccc21"
grouplabel = "True"


---

Tested on: Jurkat AP1-luciferase Reporter
Assay: DGK AP1-Reporter Assay
Format: cell-based
Conditions: read-out: DGKAP1 Lucif Reporter IC50; Table 4
Some compounds, each annotated with its measured IC50.
quantityMeasured: IC50 (µM)

[[record]]
compound = "Cn1c(=O)c(C#N)c(N2CCN(C(c3ccc(F)cc3)C3CCC3)CC2)c2nc(Cl)ccc21 (single isomer, unassigned)"
quantitymeasured = "IC50"
numericvalue = 10

[[record]]
compound = "CC(c1ccc(F)cc1)N1CCN(c2c(C#N)c(=O)n(C)c3ccc(Cl)nc23)CC1 (single isomer, unassigned)"
quantitymeasured = "IC50"
numericvalue = 3.33

[[record]]
compound = "Cn1c(=O)c(C#N)c(N2CCN(C(CC(C)(C)C)c3ccc(F)cc3)CC2)c2nc(Cl)ccc21 (single isomer, unassigned)"
quantitymeasured = "IC50"
numericvalue = 10


---

Biological target: UniProt:Q13574
Experiment: DGKζ assay (detergent/lipid micelle substrate)
Assay type: biochemical
Settings: detergent/lipid micelle substrate; read-out: DGKζ IC50
pIC50: −log10 of the molar value.
quantityMeasured: pIC50

[[record]]
compound = "Cn1c(=O)c(C#N)c(N2CCN(Cc3ccccc3O)CC2)c2nc(Br)ccc21"
quantitymeasured = "pIC50"
resultcomparator = "<"
numericvalue = 3.62

[[record]]
compound = "C#CCn1c(=O)c(C#N)c(N2CCN(C(c3ccc(F)cc3)c3ccccc3O)CC2)c2nc(Br)ccc21 (racemic) [Example 105]"
quantitymeasured = "pIC50"
resultcomparator = "="
numericvalue = 5.60

[[record]]
compound = "Cn1c(=O)c(C#N)c(N2CCN(Cc3ccc(Cl)cc3O)CC2)c2nc(Br)ccc21"
quantitymeasured = "pIC50"
resultcomparator = "<"
numericvalue = 3.62

[[record]]
compound = "COCCn1c(=O)c(C#N)c(N2CCN(C(c3ccc(F)cc3)c3ccc(F)cc3OC)CC2)c2nc(Br)ccc21 (single isomer, unassigned) [Example 115]"
quantitymeasured = "pIC50"
resultcomparator = "<"
numericvalue = 3.62

[[record]]
compound = "C#CCn1c(=O)c([N+](=O)[O-])c(N2CCN(C(C)c3ccc(F)cc3)CC2)c2nc(C#N)ccc21 (racemic)"
quantitymeasured = "pIC50"
resultcomparator = "="
numericvalue = 5.89

[[record]]
compound = "Cc1ccc2c(n1)c(N1CCN(Cc3ccc(F)cc3O)CC1)c(C#N)c(=O)n2C"
quantitymeasured = "pIC50"
resultcomparator = "="
numericvalue = 4.21

[[record]]
compound = "C#CCn1c(=O)c([N+](=O)[O-])c(N2CCN(C(CC)c3ccc(F)cc3)CC2)c2nc(C#N)ccc21 (single isomer, unassigned) [Example 141]"
quantitymeasured = "pIC50"
resultcomparator = "="
numericvalue = 5.05

